Readings of protein stability index for the listed variants
B1: IQUB (parent)
chain: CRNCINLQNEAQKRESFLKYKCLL

variants of: B1; assay: protein stability index of a GFP-peptide fusion (GPS, HEK-293T) (PSI 1-6); higher = more stable; conditions: c terminus: a fixed tail appended;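 further: lentivirally expressed fusions sorted by FACS into six bins by GFP to DsRed ratio, PSI derived from sequencing read proportions per bin multiplied by bin number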
reported-endpoint: protein stability index

# sequence-code, reported-endpoint, reported-result
measured = [
    ("CRNCDNLQNEAQKRESFLKYKCLL [I5D]", "protein stability index", 2.05),
    ("CRNCINLQNEAQGRESFLKYKCLL [K13G]", "protein stability index", 2.04),
    ("CRNHINLQNEAQKRESFLKYKCLL [C4H]", "protein stability index", 1.74),
    ("CRNCINLQNEQQKRESFLKYKCLL [A11Q]", "protein stability index", 1.34),
    ("CRNCINLQNEAEKRESFLKYKCLL [Q12E]", "protein stability index", 2.29),
    ("CRNCINLQYEAQKRESFLKYKCLL [N9Y]", "protein stability index", 2.32),
    ("CRNCINLTNEAQKRESFLKYKCLL [Q8T]", "protein stability index", 1.61),
    ("YRNCINLQNEAQKRESFLKYKCLL [C1Y]", "protein stability index", 1.86),
    ("CRNCINLQNETQKRESFLKYKCLL [A11T]", "protein stability index", 2.8),
    ("CRNRINLQNEAQKRESFLKYKCLL [C4R]", "protein stability index", 3.13),
    ("CRNCINLQNEAQKQESFLKYKCLL [R14Q]", "protein stability index", 1.89),
    ("CRNCINLQNEAQKEESFLKYKCLL [R14E]", "protein stability index", 1.36),
    ("CRNCINLQNEAQKRWSFLKYKCLL [E15W]", "protein stability index", 1.62),
    ("CRNCINLQNEAQKRESFLKPKCLL [Y20P]", "protein stability index", 1.89),
    ("CRNCINLQNEAQIRESFLKYKCLL [K13I]", "protein stability index", 2.01),
    ("CRNCINLQNEAQKRESFLKAKCLL [Y20A]", "protein stability index", 2.34),
    ("CRNCINLQNEAQKREKFLKYKCLL [S16K]", "protein stability index", 1.88),
    ("CRNCINLQNEAQKRESFLRYKCLL [K19R]", "protein stability index", 1.56),
    ("CRNCINLQNELQKRESFLKYKCLL [A11L]", "protein stability index", 1.98),
    ("CRNCINWQNEAQKRESFLKYKCLL [L7W]", "protein stability index", 2.57),
    ("CRNCINLQNEPQKRESFLKYKCLL [A11P]", "protein stability index", 1.71),
    ("CRNCINLQNEAQKRESALKYKCLL [F17A]", "protein stability index", 2.02),
    ("CRNCINLFNEAQKRESFLKYKCLL [Q8F]", "protein stability index", 1.59),
    ("CRNCINLQNEAPKRESFLKYKCLL [Q12P]", "protein stability index", 2.83),
    ("CRNCINLQNEAQKRESFLKYKCEL [L23E]", "protein stability index", 1.75),
    ("CRNLINLQNEAQKRESFLKYKCLL [C4L]", "protein stability index", 1.53),
    ("CRNCINLQNEAQKRESFLKDKCLL [Y20D]", "protein stability index", 2.11),
    ("CRNCIHLQNEAQKRESFLKYKCLL [N6H]", "protein stability index", 1.97),
    ("CRNCINLQNEAQKRESFLKYSCLL [K21S]", "protein stability index", 1.94),
    ("CRNCINLQNEAQKRESFLEYKCLL [K19E]", "protein stability index", 1.74),
    ("CNNCINLQNEAQKRESFLKYKCLL [R2N]", "protein stability index", 2.22),
    ("CRNCICLQNEAQKRESFLKYKCLL [N6C]", "protein stability index", 1.76),
    ("CRNCINLQNEAQKRESFLKMKCLL [Y20M]", "protein stability index", 2.66),
    ("CRNCINLQNEAQKRESFLKYKELL [C22E]", "protein stability index", 2.69),
    ("CRNCINVQNEAQKRESFLKYKCLL [L7V]", "protein stability index", 2.01),
    ("CRNCINLQNEAQKRESFLKHKCLL [Y20H]", "protein stability index", 1.69),
    ("CRNCINLQNEAQKRETFLKYKCLL [S16T]", "protein stability index", 1.59),
    ("CRNCINLQNEAQKRESFLKYICLL [K21I]", "protein stability index", 2.28),
    ("CRNCINLQNEAQKRFSFLKYKCLL [E15F]", "protein stability index", 2.57),
    ("CRNCINLQNEDQKRESFLKYKCLL [A11D]", "protein stability index", 2.08),
    ("CRNCINLDNEAQKRESFLKYKCLL [Q8D]", "protein stability index", 1.13),
    ("CRNCINLQNEAQKVESFLKYKCLL [R14V]", "protein stability index", 2.36),
    ("CRNCINLQNEKQKRESFLKYKCLL [A11K]", "protein stability index", 1.78),
    ("CRNCINLQNEAQKRESFRKYKCLL [L18R]", "protein stability index", 1.65),
    ("CRNCINLQNEAQYRESFLKYKCLL [K13Y]", "protein stability index", 1.73),
    ("CRNCINLSNEAQKRESFLKYKCLL [Q8S]", "protein stability index", 2.82),
    ("CRECINLQNEAQKRESFLKYKCLL [N3E]", "protein stability index", 1.37),
    ("CRNCINLQNEAQKAESFLKYKCLL [R14A]", "protein stability index", 1.02),
    ("CRNCINLQNEAQKRESFLKYHCLL [K21H]", "protein stability index", 2.47),
    ("CRNCINLQNEAQKRESFLKCKCLL [Y20C]", "protein stability index", 3.65),
    ("CRNCINLQNEAQKRESFLHYKCLL [K19H]", "protein stability index", 1.68),
    ("CRNCINRQNEAQKRESFLKYKCLL [L7R]", "protein stability index", 1.65),
    ("CRNCINLQNEAQKRESFLKYQCLL [K21Q]", "protein stability index", 2.28),
    ("CRNCINLQNEAQKRESFLFYKCLL [K19F]", "protein stability index", 2.54),
    ("CPNCINLQNEAQKRESFLKYKCLL [R2P]", "protein stability index", 2.25),
    ("CRNDINLQNEAQKRESFLKYKCLL [C4D]", "protein stability index", 1.98),
    ("CRNCINYQNEAQKRESFLKYKCLL [L7Y]", "protein stability index", 1.86),
    ("CRNCINLQNEAQKRESFLKYECLL [K21E]", "protein stability index", 1.75),
    ("CRNCIILQNEAQKRESFLKYKCLL [N6I]", "protein stability index", 2.59),
    ("CRNCINLQNEAQKRKSFLKYKCLL [E15K]", "protein stability index", 1.92),
    ("CRNCINLQNEAQKRESVLKYKCLL [F17V]", "protein stability index", 2.25),
]
